target: bacteriophage T4 DNA polymerase (Enterobacteria phage T4, UniProt P04415); construct: made in house; experiment: Counter-screen against bacteriophage T4 DNA polymerase; type: biochemical; conditions: DRC-2; 90'; concentration 5
Sequence (P04415 whole entry): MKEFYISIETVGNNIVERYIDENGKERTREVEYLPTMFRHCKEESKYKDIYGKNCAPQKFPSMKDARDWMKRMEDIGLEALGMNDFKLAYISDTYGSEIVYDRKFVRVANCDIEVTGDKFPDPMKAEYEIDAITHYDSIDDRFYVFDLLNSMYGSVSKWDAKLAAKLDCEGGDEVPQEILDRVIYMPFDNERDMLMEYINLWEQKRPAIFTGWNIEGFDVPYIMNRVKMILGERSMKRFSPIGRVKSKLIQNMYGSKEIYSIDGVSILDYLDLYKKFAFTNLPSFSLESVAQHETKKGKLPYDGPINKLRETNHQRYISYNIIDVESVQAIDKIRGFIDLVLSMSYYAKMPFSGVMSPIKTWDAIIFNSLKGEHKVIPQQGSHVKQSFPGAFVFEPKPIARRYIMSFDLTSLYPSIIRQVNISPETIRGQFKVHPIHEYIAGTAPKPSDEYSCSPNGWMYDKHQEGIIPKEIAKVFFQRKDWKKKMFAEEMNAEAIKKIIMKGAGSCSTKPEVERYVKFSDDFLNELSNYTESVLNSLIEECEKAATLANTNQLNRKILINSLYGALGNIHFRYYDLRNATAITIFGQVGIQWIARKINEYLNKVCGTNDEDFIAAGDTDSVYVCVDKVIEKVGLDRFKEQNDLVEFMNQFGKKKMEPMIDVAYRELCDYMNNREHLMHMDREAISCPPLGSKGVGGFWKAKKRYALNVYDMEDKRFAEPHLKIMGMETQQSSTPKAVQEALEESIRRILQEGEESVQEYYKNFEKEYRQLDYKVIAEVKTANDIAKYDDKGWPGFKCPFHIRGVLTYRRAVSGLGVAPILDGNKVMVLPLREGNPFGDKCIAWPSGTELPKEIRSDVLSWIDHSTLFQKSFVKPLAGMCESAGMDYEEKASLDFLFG
READOUT NAME: % inhibition T4 90'

Worked cases, % inhibition T4 90' given:
| MOLECULE | % inhibition T4 90' |
| --- | --- |
| Cc1ccc(C)n1-c1ccc(C(=O)NNC(=O)c2ccc3nccnc3c2)cc1 [Molecule 53] | 22% |
| COc1cccc(Oc2c(C(F)(F)F)oc3cc(OC(=O)N(C)C)ccc3c2=O)c1 [Molecule 52] | 3% |
| CC(=O)c1cc2c(N)c(/C(N)=N/C#N)sc2nc1C [KU0015866] | -16% |
| Cc1nc(/N=N/c2ccc(C(=O)[O-])cc2)c(COP(=O)([O-])[O-])c(C=O)c1O.[Na+].[Na+].[Na+] [KU0261395] | -18% |
| O=C1c2ccccc2C(=O)N1Oc1ccc([N+](=O)[O-])c([N+](=O)[O-])c1 [Molecule 66] | -4% |
| O=C(NNC(=O)c1ccc(Cl)cc1)C(=O)NNC(=O)c1ccc(Cl)cc1 [Molecule 25] | -13% |

Challenge: GET % inhibition T4 90' where system = bacteriophage T4 DNA polymerase (Enterobacteria phage T4, UniProt P04415) and item = N#CC(=NNc1cc(C(F)(F)F)cc(C(F)(F)F)c1)C(=O)c1ccco1 [KU0264276]
Response given: 7%

Challenge: GET % inhibition T4 90' where system = bacteriophage T4 DNA polymerase (Enterobacteria phage T4, UniProt P04415) and item = O=C(O)CCS(=O)(=O)c1ccc(-c2ccc(S(=O)(=O)CCC(=O)O)cc2)cc1 [Molecule 32]
Response given: -25%
